Item-by-item account of growth
Tested on: NCI-H23 lung
procedure.summary: NCI-60 one-dose screen, 48 h (100 = growth as untreated, 0 = no growth, -100 = all killed)
test.conditions: 10 µM unless noted
About 83,000 compounds went through this panel and 20% of them were active in at least one assay; those are over-represented in the sample as a whole.

- smi: "Cc1ccc(C(=O)Nc2ccc(CN3CCN(C)CC3)c(C(F)(F)F)c2)cc1C#Cc1cnc2cccnn12"
  test.system: "NCI-H23 lung"
  growth [%]: -84.8
- smi: "Oc1ccc(/C=N/Nc2nnc(N/N=C/c3ccc(O)cc3O)c3ccccc23)c(O)c1"
  test.system: "NCI-H23 lung"
  growth [%]: -58.7
- smi: "COC(=O)[C@]12CC[C@@H](C)[C@H](C)[C@@H]1C1=CC[C@@H]3[C@@]4(C)C(c5cnco5)=C[C@@](C)(CO)C4=CC[C@@]3(C)[C@]1(C)CC2"
  test.system: "NCI-H23 lung"
  growth [%]: 47.8
- smi: "CNC(=O)c1cnc(C)nc1-c1cc(C(C)(C)C)c(O)c(C(C)(C)C)c1"
  test.system: "NCI-H23 lung"
  growth [%]: 103
- smi: "COc1ccc(-c2ccc3c(N4CCOC[C@@H]4C)nc(N4CCOC[C@@H]4C)nc3n2)cc1CO"
  test.system: "NCI-H23 lung"
  growth [%]: 20.3
- smi: "CCN(CCO)CCCOc1ccc2c(Nc3cc(CC(=O)Nc4cccc(F)c4)[nH]n3)ncnc2c1"
  test.system: "NCI-H23 lung"
  growth [%]: 29.2
- smi: "C=C1C(=O)O[C@H]2[C@H]1CC/C(C=Nc1c(N)cc(C(F)(F)F)cc1C(F)(F)F)=C\\CC[C@@]1(C)O[C@@H]21"
  test.system: "NCI-H23 lung"
  growth [%]: -29
- smi: "C[C@@H]1COC(Nc2ccc3ncnc(Nc4ccc(OCc5nccs5)c(Cl)c4)c3c2)=N1"
  test.system: "NCI-H23 lung"
  growth [%]: 46.8

====

System: MDA-MB-435 melanoma
procedure.summary: NCI-60 one-dose screen, 48 h
test.conditions: 10 µM unless noted
Procedure: Growth inhibition of the MDA-MB-435 human Melanoma tumor cell line is measured as a screen for anti-cancer activity. Cells are grown in 96 well plates and exposed to the test compound for 48 hours. Compounds are tested at a single concentration, which is 10^-5 M for most compounds. The reported endpoint is percent growth (GI% or GIPRCNT), where numbers from 0 - 100% represent growth inhibition, and numbers from -100% - 0 represent cell death. […]
The panel holds about 83,000 compounds, 20% with a hit somewhere; the sample as a whole holds those more often. Active and inactive are the calls of the source. Rule for the calls: active = growth percent below 10; inactive = the rest.
Outcome codes: active, inactive

- compound: "CO[C@@H](C(=O)N1Cc2[nH]nc(NC(=O)c3ccc(N4CCN(C)CC4)cc3)c2C1)c1ccccc1"
  answer.label: "inactive"
- compound: "CN(C)C1CCN(C(=O)c2ccc(NC(=O)Nc3ccc(-c4nc(N5CCOCC5)nc(N5CCOCC5)n4)cc3)cc2)CC1"
  answer.label: "active"
- compound: "C[C@H](NC(=O)c1c(N)nn2cccnc12)c1cc2cccc(C#Cc3cnn(C)c3)c2c(=O)n1-c1ccccc1"
  answer.label: "inactive"
- compound: "C#Cc1cccc(Nc2ncnc3cc(OCCOC)c(OCCOC)cc23)c1"
  answer.label: "inactive"
- compound: "C[C@]12O[C@H](C[C@]1(O)CO)n1c3ccccc3c3c4c(c5c6ccccc6n2c5c31)CNC4=O"
  answer.label: "active"
- compound: "Cc1cn(-c2cc(NC(=O)c3ccc(C)c(Nc4nccc(-c5cnccn5)n4)c3)cc(C(F)(F)F)c2)cn1"
  answer.label: "inactive"
- compound: "COC(=O)[C@]12CC[C@@H](C)[C@H](C)[C@@H]1C1=CC[C@@H]3[C@@]4(C)C(c5cnco5)=C[C@@](C)(CO)C4=CC[C@@]3(C)[C@]1(C)CC2"
  answer.label: "inactive"
- compound: "Cc1sc2c(c1C)c(=O)nc1c(-c3nc4ccccc4s3)n[nH]n12"
  answer.label: "inactive"
- compound: "O=C(c1c(F)ccc(NS(=O)(=O)N2CC[C@@H](F)C2)c1F)c1c[nH]c2ncc(-c3cnc(C4CC4)nc3)cc12"
  answer.label: "inactive"
- compound: "C=C1C(=O)O[C@H]2[C@H]1CC/C(CNC(=O)c1cc3cc(OC)ccc3[nH]1)=C\\CC[C@@]1(C)O[C@@H]21"
  answer.label: "active"
- compound: "COC(=O)CNC(=O)[C@@H](OC)[C@@H]1Cc2cc3cc(OC4CC(OC5CC(O)C(O)C(C)O5)C(O)C(C)O4)c(C)c(O)c3c(O)c2C(=O)[C@H]1OC1CC(OC2CC(OC3CC(C)(O)C(O)C(C)O3)C(O)C(C)O2)C(O)C(C)O1 (stereo partly specified)"
  answer.label: "active"
- compound: "Cc1cccc(NC(=O)[C@@H]2c3ccccc3C(=O)N(c3ccc(Cl)cc3)[C@H]2c2ccc(Cl)cc2)n1"
  answer.label: "inactive"
- compound: "CCN1CCN(CCCN(C[C@H]2Cc3ccccc3CN2)[C@H]2CCCc3cccnc32)CC1"
  answer.label: "inactive"
- compound: "Cc1ccc(N=C2CSc3nnc(-c4csc5c4CCCC5)n3N2)cc1"
  answer.label: "active"
- compound: "Cn1cc(-c2cnn3c(N)c(Br)c([C@@H]4CCCNC4)nc23)cn1"
  answer.label: "inactive"
- compound: "N#Cc1c(-c2ccc(C(F)(F)F)cc2)c(F)c(NCCC2CCC(O)C2)n2c1nc1ccccc12 (stereo unspecified)"
  answer.label: "inactive"
- compound: "CC12O[C@H](C[C@@H](OC(=O)CCC(=O)O)[C@H]1O)n1c3ccccc3c3c4c(c5c6ccccc6n2c5c31)C(=O)NC4=O"
  answer.label: "active"
- compound: "CN1CCN(CCCOc2cccc3nc(Nc4ccc(Cl)c(C(F)(F)F)c4)ccc23)CC1"
  answer.label: "active"
- compound: "CC(C)CC(=O)Nc1n[nH]c2c1CN(C(=O)C1CCN(C)CC1)C2(C)C"
  answer.label: "inactive"
- compound: "O=C(NC[C@H](O)CO)c1ccncc1Nc1ccc(I)cc1F"
  answer.label: "inactive"
- compound: "Cc1cc(Oc2ccccc2)ccc1Nc1ncnc2ccc(-c3cnc(Cl)c(NS(C)(=O)=O)c3)cc12"
  answer.label: "inactive"
- compound: "Cc1nc(N)sc1-c1ccnc(Nc2ccc(N3CCOCC3)cc2)n1"
  answer.label: "inactive"
- compound: "CC(=O)C1CC(C)CCC1C(C)C (stereo unspecified)"
  answer.label: "inactive"
- compound: "O=C(Nc1ccc(N=Nc2ccccc2)cc1)c1cccc2ccccc12"
  answer.label: "active"
- compound: "O=C(Nc1cccc(Cl)c1)Nc1ncc(CCNc2ncnc3ccsc23)s1"
  answer.label: "inactive"
- compound: "Cc1ccc(F)c(NC(=O)Nc2ccc(-c3cccc4[nH]nc(N)c34)cc2)c1"
  answer.label: "inactive"
- compound: "C=CC(=O)N(C)[C@H]1C[C@H]2OC(C)(C1OC)n1c3ccccc3c3c4c(c5c6ccccc6n2c5c31)C(=O)NC4 (stereo partly specified)"
  answer.label: "active"
- compound: "CCc1nc2cc(/C=C/C(=O)NO)ccc2c(=O)n1CCc1ccc(F)cc1"
  answer.label: "inactive"
- compound: "CC/C(=C(\\c1ccc(OCCN2CCCCCCC2)cc1)c1ccc(OC(=O)C2CCCCC2)cc1)c1ccc(Cl)cc1"
  answer.label: "inactive"
- compound: "O=C1C=CC2(NN=C(c3ccccc3)N2c2cccc(Cl)c2)c2cccc(O)c21 (stereo unspecified)"
  answer.label: "active"
- compound: "CNS(=O)(=O)Nc1nccc(Cc2c(C)c3ccc(Oc4ncccn4)cc3oc2=O)c1F"
  answer.label: "inactive"
- compound: "N#Cc1ccc(-n2nnc3ccccc32)cc1C#N"
  answer.label: "inactive"
- compound: "CCCCCCC1(/C=N/NC(N)=O)NC(=O)NC1=O (stereo unspecified)"
  answer.label: "inactive"
- compound: "CC(N)C(Cc1ccc(Cl)cc1)c1ccc(Cl)cc1 (stereo unspecified)"
  answer.label: "inactive"
- compound: "Cc1ccc(-n2nc(C(C)(C)C)cc2NC(=O)NCc2cc(F)ccc2Oc2ccc3c(cnn3CCO)c2)cc1"
  answer.label: "active"
- compound: "Cn1cnc2c(F)c(Nc3ccc(Br)cc3F)c(C(=O)NOCCO)cc21"
  answer.label: "inactive"

====

System: NCI-H23 lung
procedure.summary: NCI-60 one-dose screen, 48 h (100 = growth as untreated, 0 = no growth, -100 = all killed)
test.conditions: 10 µM unless noted
Compounds without any hit were thinned out: in the full panel of roughly 83,000, 20% have a hit.
Could you mark each record criterion met if its growth falls strictly under 70%, and criterion not met if it equals or exceeds it?

- compound: "Nc1cc2c(cc1Br)-c1c(C(=O)O)cccc1C2O (stereo unspecified)"
  answer.label: "criterion not met"
- compound: "Nc1nc(N)c2cc(CNc3ccc(C(=O)NC(CC(=O)O)C(=O)O)cc3)ccc2n1 (stereo unspecified)"
  answer.label: "criterion met"
- compound: "ClCc1ccc(-c2ccc(Cn3cnc4nc(Cl)nc(Cl)c43)cc2)cc1"
  answer.label: "criterion met"
- compound: "CC(C)C1CCC(C)C(C2(C#N)C(N)=NC(N)=C2C#N)C1=O (stereo unspecified)"
  answer.label: "criterion not met"
- compound: "CC(CCCC(=O)O)c1ccoc1 (stereo unspecified)"
  answer.label: "criterion not met"
- compound: "O=C(NO)c1ccc(Cn2c(=O)n(CCc3ccccc3)c(=O)c3ccccc32)cc1"
  answer.label: "criterion met"
- compound: "NC(=O)c1c(OCc2c(F)cc(Br)cc2F)nsc1NC(=O)NCCCCN1CCCC1"
  answer.label: "criterion met"
- compound: "NC1(c2ccc(-c3nc4ccn5c(=O)[nH]nc5c4cc3-c3ccccc3)cc2)CCC1"
  answer.label: "criterion not met"
- compound: "C[C@@]1(C(=O)Nc2ccc(F)nc2)CCCN1c1nc(Nc2cc(C3CC3)[nH]n2)c2cccn2n1"
  answer.label: "criterion met"
- compound: "CC(=O)O[C@]1(C)C[C@H](O)[C@]2(O)C=CO[C@H](O[C@@H]3O[C@H](CO)[C@@H](O)[C@H](O)[C@H]3O)[C@@H]21"
  answer.label: "criterion not met"
- compound: "COc1ccc2c(c1)cn1c3ccc(O)cc3nc(N)c21"
  answer.label: "criterion met"
- compound: "Cc1cc(O)cc(-c2c(-c3ccnc(-c4cccnc4)c3)cnn2C)c1"
  answer.label: "criterion not met"
- compound: "Cc1c(NC(=O)OC[C@@H]2COCCN2)cn2ncnc(Nc3ccc4c(cnn4Cc4cccc(F)c4)c3)c12"
  answer.label: "criterion met"
- compound: "Nc1ccc(S(=O)(=O)O)c2cc(S(=O)(=O)O)cc(O)c12"
  answer.label: "criterion not met"
- compound: "COc1ccc(C(=O)N2c3ccccc3Sc3ccccc32)c(F)c1"
  answer.label: "criterion met"
- compound: "CCCC(=O)OCC1OC(n2cnc3c(=S)nc[nH]c32)C(OC(=O)CCC)C1OC(=O)CCC (stereo unspecified)"
  answer.label: "criterion met"
- compound: "Cn1ncc(Cl)c1-c1cc(C(=O)N[C@H](CN)Cc2ccc(F)c(F)c2)oc1Cl"
  answer.label: "criterion met"
- compound: "Cc1cc(C(O)CN(C)C)cc2c1ccc1cc(C(C)C)ccc12 (stereo unspecified)"
  answer.label: "criterion met"
- compound: "Cc1csc(-c2nnc(Nc3ccc(Oc4ncccc4-c4ccnc(N)n4)cc3)c3ccccc23)c1"
  answer.label: "criterion met"
- compound: "O=C(Nc1ccc(N=Nc2ccccc2)cc1)c1cccc2ccccc12"
  answer.label: "criterion not met"

Measured values drawn from PubChem BioAssay (NCI) for this set.
